Every entry's value here was drawn from patent US20020137929A1.

Tested on: CYPIR (Rice Flatsedge)
assay-method-text: Postemergence weed control under flooded paddy conditions
Assay type: in vivo, Cyperus iria
settings: Rate 0.0625 kg/ha, postemergence weeds, rated 3 to 4 weeks after treatment
Text: Results of herbicide evaluation are expressed on a rating scale (0-9). The scale is based upon a visual observation of plant stand, vigor, malformation, size, chlorosis and overall plant appearance as compared with a control. Plastic containers containing weeds which are 3 to 5 cm tall and rice seedlings at the 1.5 to 2.5 leaf stage are flooded with water. […] The compounds evaluated are reported by compound number given in Example 37.
assay-readout: Herbicidal rating CYPIR
Answer with a bare number; do not write a unit.

Cn1c(C(F)(F)F)cc(=O)n(-c2cc(N=C3SCC(=O)N3CC(=O)OCC#N)c(Cl)cc2F)c1=O; 2.0
C=CCN1C(=O)C(CC(N)=O)SC1=Nc1cc(-n2c(=O)cc(C(F)(F)F)n(C)c2=O)c(F)cc1Cl (stereo not drawn); 0.0
COC(=O)[C@H](Cc1ccccc1)N1C(=O)CS/C1=N/c1cc(-n2c(=O)cc(C(F)(F)F)n(C)c2=O)c(F)cc1Cl; 6.0
Cn1c(C(F)(F)F)cc(=O)n(-c2cc(N=C3SCC(=O)N3[C@H](Cc3ccccc3)C(=O)O)c(Cl)cc2F)c1=O; 3.0
COC(=O)C1(N2C(=O)CSC2=Nc2cc(-n3c(=O)cc(C(F)(F)F)n(C)c3=O)c(F)cc2Cl)CCCCC1; 4.0

Next, consider the following compound.
Summary for this compound, COC(=O)[C@H](Cc1ccc([N+](=O)[O-])cc1)N1C(=O)CSC1=Nc1cc(-n2c(=O)cc(C(F)(F)F)n(C)c2=O)c(F)cc1Cl : Herbicidal rating CYPIR is 5.0

---

Test system: AMBEL (Ragweed, Common)
assay-method-text: Preemergence herbicidal evaluation
Type: in vivo, Ambrosia artemisifolia
settings: rate 0.0625 kg/ha; rated 4-5 weeks after treatment; rating scale 0-9
Recorded measurements of Preemergence herbicidal rating AMBEL, one per entry
Give only the figure.

Cn1c(C(F)(F)F)cc(=O)n(-c2cc(N=C3SCC(=O)N3Cc3ccc(Cl)cc3)c(Cl)cc2F)c1=O [Compound 145]; 2.0
Cn1c(C(F)(F)F)cc(=O)n(-c2cc(N=C3SCC(=O)N3Cc3ccc(S(N)(=O)=O)cc3)c(Cl)cc2F)c1=O [Compound 135]; 0.0
COCCN1C(=O)CSC1=Nc1cc(-n2c(=O)cc(C(F)(F)F)n(C)c2=O)c(F)cc1Cl [Compound 155]; 0.0

Briefly, Preemergence herbicidal rating AMBEL measured for CSCCN1C(=O)CSC1=Nc1cc(-n2c(=O)cc(C(F)(F)F)n(C)c2=O)c(F)cc1Cl [Compound 157] : 0.0

---

Test system: GALAP (Galium)
assay-method-text: Preemergence herbicidal evaluation
Format: in vivo, Galium aparine
settings: rate 0.1250 kg/ha; rated 4-5 weeks after treatment
assay-readout: Preemergence herbicidal rating GALAP
Give the figure only, with no unit attached.

Some molecules with recorded Preemergence herbicidal rating GALAP:
CCOC(=O)CN1C(=O)C(Cc2ccccc2OC(C)C(=O)O)S/C1=N/c1cc(-n2c(=O)cc(C(F)(F)F)n(C)c2=O)c(F)cc1Cl (stereo not shown); 7.0
COCCOC(=O)CN1C(=O)CSC1=Nc1cc(-n2c(=O)cc(C(F)(F)F)n(C)c2=O)c(F)cc1Cl; 7.0

For Cn1c(C(F)(F)F)cc(=O)n(-c2cc(N=C3SCC(=O)N3CC(=O)OCC3CC3)c(Cl)cc2F)c1=O the molecule record lists Preemergence herbicidal rating GALAP as 0.0

Quick note, Preemergence herbicidal rating GALAP for Cn1c(C(F)(F)F)cc(=O)n(-c2cc(N=C3SCC(=O)N3[C@H](Cc3ccccc3)C(=O)O)c(Cl)cc2F)c1=O landed at 1.0

---

Reported SETVI herbicidal rating by item:
Tested on: SETVI (Foxtail, Green)
assay-method-text: Postemergence herbicidal evaluation
Format: in vivo, Setaria viridis
settings: postemergence, rate 0.0625 kg/ha
When you answer, write just the number.

Briefly, SETVI herbicidal rating measured for C=CCN1C(=O)C(CC(=O)NOC)SC1=Nc1cc(-n2c(=O)cc(C(F)(F)F)n(C)c2=O)c(F)cc1Cl (stereo not drawn) : 9.0

response.value for C=CCN1C(=O)C(CC(=O)OC(C)C)SC1=Nc1cc(-n2c(=O)cc(C(F)(F)F)n(C)c2=O)c(F)cc1Cl (stereo not drawn) (field: SETVI herbicidal rating) = 9.0

Notebook: CCOC(=O)CN1C(=O)C(CC(=O)OC(C)C(=O)OCC)S/C1=N/c1cc(-n2c(=O)cc(C(F)(F)F)n(C)c2=O)c(F)cc1Cl (stereo not drawn) , SETVI herbicidal rating read as 2.0

Reported SETVI herbicidal rating for CCOC(=O)CN1C(=O)C(C)SC1=Nc1cc(-n2c(=O)cc(C(F)(F)F)n(C)c2=O)c(F)cc1Cl (stereo not drawn) was 9.0

The measured SETVI herbicidal rating associated with CC1SC(=Nc2cc(-n3c(=O)cc(C(F)(F)F)n(C)c3=O)c(F)cc2Cl)N(C)C1=O (stereo not drawn) reads 6.5

The value of SETVI herbicidal rating measured for the molecule O=C1CSC(=Nc2cc(N3C(=O)C4=C(CCCC4)C3=O)c(F)cc2Cl)N1c1ccccc1 turned out to be 0.0

---

Catalogue of molecules with associated Preemergence herbicidal rating IPOHE
System: IPOHE (Morningglory, Ivyleaf)
assay-method-text: Preemergence herbicidal evaluation
Type: in vivo, Ipomoea hederacea
settings: rate 0.1250 kg/ha; rated 4-5 weeks after treatment; rating scale 0-9
Give the figure by itself; no unit, no explanation.

Some solved cases for reference:
Cn1c(C(F)(F)F)cc(=O)n(-c2cc(N=C3SCC(=O)N3Cc3cccc(C(F)(F)F)c3)c(Cl)cc2F)c1=O; 1.0
Cn1c(C(F)(F)F)cc(=O)n(-c2cc(N=C3SCC(=O)N3Cc3ccc(Cl)cc3)c(Cl)cc2F)c1=O; 7.0
COc1ccc(CN2C(=O)CSC2=Nc2cc(-n3c(=O)cc(C(F)(F)F)n(C)c3=O)c(F)cc2Cl)cc1OC; 0.0
Cc1cccc(CN2C(=O)CSC2=Nc2cc(-n3c(=O)cc(C(F)(F)F)n(C)c3=O)c(F)cc2Cl)c1; 9.0
Cc1ccc(CN2C(=O)CSC2=Nc2cc(-n3c(=O)cc(C(F)(F)F)n(C)c3=O)c(F)cc2Cl)cc1C; 0.0

From here, focus on the item given below.
Tested on IPOHE (Morningglory, Ivyleaf): Cn1c(C(F)(F)F)cc(=O)n(-c2cc(N=C3SCC(=O)N3Cc3ccc(Br)cc3)c(Cl)cc2F)c1=O . Observed Preemergence herbicidal rating IPOHE: 0.0

---

Tested on: CHEAL (Lambsquarters, Common)
assay-method-text: Preemergence herbicidal evaluation
Assay type: in vivo, Chenopodium album
settings: rate 0.0313 kg/ha; rated 4-5 weeks after treatment
As shown below, each of these compounds has a reported Preemergence herbicidal rating CHEAL value.
Simply state the number, no unit and no words.

CCOC(=O)CN1C(=O)C(C(=O)OCC)SC1=Nc1cc(-n2c(=O)cc(C(F)(F)F)n(C)c2=O)c(F)cc1Cl (centres unmarked) [Compound 127]; 9.0
C=CCN1C(=O)CSC1=Nc1cc(-n2c(=O)cc(C(F)(F)F)n(C)c2=O)c(F)cc1Cl [Compound 27]; 9.0
CCOC(=O)CN1C(=O)C(CC(=O)O)O/C1=N/c1cc(-n2c(=O)cc(C(F)(F)F)n(C)c2=O)c(F)cc1Cl (centres unmarked) [Compound 41]; 4.0
O=C(O)CC1SC(=Nc2cc(N3C(=O)C4=C(CCCC4)C3=O)c(F)cc2Cl)N(CC(=O)O)C1=O (centres unmarked) [Compound 48]; 9.0

Recorded Preemergence herbicidal rating CHEAL (compound CCOC(=O)COc1ccccc1CC1S/C(=N/c2cc(-n3c(=O)cc(C(F)(F)F)n(C)c3=O)c(F)cc2Cl)N(CC(=O)OCC)C1=O (centres unmarked) [Compound 42] ): 0.0

---

Test system: CYPSE (Flatsedge)
assay-method-text: Preemergence weed control under flooded paddy conditions
Assay type: in vivo, Cyperus serotinus
settings: 0.0313 kg/ha, rated 3-4 weeks after treatment
assay-readout: Herbicidal rating CYPSE
Form rule: numeric answer, no unit written next to it.

See these solved cases before continuing.
CCOC(=O)CN1C(=O)C(F)SC1=Nc1cc(-n2c(=O)cc(C(F)(F)F)n(C)c2=O)c(F)cc1Cl (stereo not shown); 0.0
CN1C(=O)CSC1=Nc1cc(N2C(=O)C3=C(CCCC3)C2=O)c(F)cc1Cl; 0.0
Cn1c(C(F)(F)F)cc(=O)n(-c2cc(N=C3SCC(=O)N3CC(=O)NS(C)(=O)=O)c(Cl)cc2F)c1=O; 0.0

Next, consider the following molecule.
Considering COC(=O)CN1C(=O)CSC1=Nc1cc(-n2c(=O)cc(C(F)(F)F)n(C)c2=O)c(F)cc1Cl , its Herbicidal rating CYPSE with CYPSE (Flatsedge) was recorded as 9.0
